# Target Entity: T1, human β-klotho (human, UniProt Q86Z14 1-1044)
# T1 sequence (looked up): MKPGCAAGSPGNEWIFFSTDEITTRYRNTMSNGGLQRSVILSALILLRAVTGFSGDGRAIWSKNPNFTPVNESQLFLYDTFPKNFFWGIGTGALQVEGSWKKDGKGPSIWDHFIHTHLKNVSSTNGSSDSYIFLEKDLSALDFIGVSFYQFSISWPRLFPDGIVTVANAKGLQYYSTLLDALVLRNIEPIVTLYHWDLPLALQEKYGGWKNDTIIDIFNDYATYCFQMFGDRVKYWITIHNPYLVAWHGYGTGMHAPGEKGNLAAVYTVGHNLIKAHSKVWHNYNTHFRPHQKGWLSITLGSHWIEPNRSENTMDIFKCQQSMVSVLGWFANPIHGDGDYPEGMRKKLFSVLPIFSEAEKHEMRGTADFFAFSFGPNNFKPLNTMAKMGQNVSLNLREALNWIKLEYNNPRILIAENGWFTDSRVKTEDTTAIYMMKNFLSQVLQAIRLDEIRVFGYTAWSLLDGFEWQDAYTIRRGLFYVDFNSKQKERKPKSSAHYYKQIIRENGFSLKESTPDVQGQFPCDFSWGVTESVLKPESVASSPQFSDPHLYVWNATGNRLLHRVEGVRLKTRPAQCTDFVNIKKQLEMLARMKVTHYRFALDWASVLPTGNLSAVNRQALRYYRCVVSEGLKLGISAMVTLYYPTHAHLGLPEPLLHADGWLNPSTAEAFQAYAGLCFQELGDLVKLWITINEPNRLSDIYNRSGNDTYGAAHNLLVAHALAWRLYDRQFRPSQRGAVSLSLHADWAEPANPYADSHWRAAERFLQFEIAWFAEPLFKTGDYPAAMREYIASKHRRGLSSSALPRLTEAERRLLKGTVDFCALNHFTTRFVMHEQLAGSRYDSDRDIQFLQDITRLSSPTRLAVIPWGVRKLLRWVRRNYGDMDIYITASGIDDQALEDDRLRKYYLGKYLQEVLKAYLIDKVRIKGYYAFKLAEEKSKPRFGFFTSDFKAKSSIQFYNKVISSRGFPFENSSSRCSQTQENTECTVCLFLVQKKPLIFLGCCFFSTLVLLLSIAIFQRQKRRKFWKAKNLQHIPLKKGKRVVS
# Assay Method Text: cell-based or functional assay
Observed Property: EC50 (nM), pERK In Cell Western
Your reply should be a number followed by the unit it is expressed in.

Q. Give recorded EC50 (nM), pERK In Cell Western. hFGF21(33-209)-V62 (ligand) DSSPLLQFGGQVRQRYLYTDDACQTEAHLEIREDGTVGGAAHQSPESLLQLKALKPGVIQILGVKTSRFLCQRPDGALYGSLHFDPEACSFRELLLENGYNVYQSETHGLPLHLPCNKSPHRDPASQGPARFLPLPGLPPAPPEPPGILAPQPPDVGSSDPLAMVGPSQARSPSYAS
A. 24 nM

Q. Give the measured EC50 (nM), pERK In Cell Western for hFGF21(33-209)-V73 (ligand) DSSPLLQFGGQVRQRYLYTDDAQETEAHLEIREDGTVGGAAHQSPESLLELKALKPGVIQILGVKTSRFLCQKPDGALYGSLHFDPEACSFRELLLEEGYNVYQSEAHGLPLHLPGNRSPHRDPAPQGPARFLPLPGLPPALPEPPGILAPQPPDVGSSDPLAMVGPSQGRSPSYAS
A. 5.8 nM

Q. Complete the entry with EC50 (nM), pERK In Cell Western for hFGF21(33-209)-V55 (ligand) DSSPLLQFGGQVRQRYLYTDDAQQTEAHLEIREDGTAGGAAHQSPESLLELKALKPGVIQILGVKTSRFLCQKPDGALYGSLHFDPEACSFRELLLENGYNVYQSEAHGLPLHLPGNRSPHRDPASQGPARFLPLPGLPPAPPEPPGILAPQPPDVGSSDPLAMVGPSQGRSPSYAS
A. 34 nM

Q. Give a short answer stating reported EC50 (nM), pERK In Cell Western for hFGF21(33-209)-WT-CH (ligand) DSSPLLQFGGQVRQRYLYTDDAQQTEAHLEIREDGTVGGAADQSPESLLQLKALKPGVIQILGVKTSRFLCQRPDGALYGSLHFDPEACSFRELLLEDGYNVYQSEAHGLPLHLPGNKSPHRDPAPRGPARFLPLPGLPPALPEPPGILAPQPPDVGSSDPLSMVGPSQGRSPSYAS .
A. 7.4 nM

Q. Consider the binder hFGF21(33-209)-WT-N-40 kDa bPEG-AL (ligand, 40 kDa branched PEG (aldehyde reagent) on the N-terminal amine) DSSPLLQFGGQVRQRYLYTDDAQQTEAHLEIREDGTVGGAADQSPESLLQLKALKPGVIQILGVKTSRFLCQRPDGALYGSLHFDPEACSFRELLLEDGYNVYQSEAHGLPLHLPGNKSPHRDPAPRGPARFLPLPGLPPALPEPPGILAPQPPDVGSSDPLSMVGPSQGRSPSYAS . State its measured EC50 (nM), pERK In Cell Western.
A. 20 nM

Q. Provide one value: measured EC50 (nM), pERK In Cell Western of hFGF21(33-209)-V81 (ligand) DSSPLLQFGGQVRQRYLYTDDAQQTEAHLEIREDGTVGGAAHQSPESLLELKALKPGVIQILGVKTSRFLCQKPDGALYGSLHFDPEACSFRELLLEDGYNVYQSEAHGLPLHLPGNRSPHCDPASQGPARFLPLPGLPPALPEPPGILAPQPPDVGSSDPLAMVGPSQGRSPSYAS
A. 11 nM

Each recorded value in this set is attributed to patent US20120129766A1.
